tested on: recombinant luciferase-expressing HIV-1; type: cell-based; settings: recombinant luciferase-expressing HIV-1; mean ± standard error, triplicate; read-out: IC50 viral entry
Rule: IC50 below 5 nM gives y. Equal to or above 5 nM gives n.

Previously resolved entries follow.
>>> qualitative_label("Ac-WMEFDREINNYTSLIHSLIEESQNQQEKNEQELL-NH2 [Trp^631→Phe]")
"y"
>>> qualitative_label("Ac-WMEWDAEINNYTSLIHSLIEESQNQQEKNEQELL-NH2 [Arg^633→Ala]")
"y"
>>> qualitative_label("Ac-WMELDREINNYTSLIHSLIEESQNQQEKNEQELL-NH2 [Trp^631→Leu]")
"n"
>>> qualitative_label("Ac-WMEGDREINNYTSLIHSLIEESQNQQEKNEQELL-NH2 [Trp^631→Gly]")
"n"

is_below(IC50, 5 nM) for Ac-WMEWDREANNYTSLIHSLIEESQNQQEKNEQELL-NH2 [Ile^635→Ala] ? y

is_below(IC50, 5 nM) for Ac-WMEVDREINNYTSLIHSLIEESQNQQEKNEQELL-NH2 [Trp^631→Val] ? n

* * *

target: N36 peptide (Human immunodeficiency virus type 1 group M subtype B, UniProt P04578); construct: made in house; host or cells: chemical peptide synthesis; format: physicochemical, HIV-1; conditions: C34 peptide 10 μM + N36 10 μM, phosphate-buffered saline pH 7.0, CD signal at 222 nm
Sequence (P04578 546-581): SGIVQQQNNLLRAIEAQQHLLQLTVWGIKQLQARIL
Rule: Tm (apparent melting temperature) of N36/C34 complex below 60 °C gives Y. Equal to or above 60 °C gives N.

Previously resolved entries follow.
>>> qualitative_label("Ac-WMEWDAEINNYTSLIHSLIEESQNQQEKNEQELL-NH2 [Arg^633→Ala]")
"N"
>>> qualitative_label("Ac-WMELDREINNYTSLIHSLIEESQNQQEKNEQELL-NH2 [Trp^631→Leu]")
"Y"
>>> qualitative_label("Ac-WMEGDREINNYTSLIHSLIEESQNQQEKNEQELL-NH2 [Trp^631→Gly]")
"Y"
>>> qualitative_label("Ac-WMEVDREINNYTSLIHSLIEESQNQQEKNEQELL-NH2 [Trp^631→Val]")
"Y"

Now turn to the next substance.
is_below(Tm (apparent melting temperature) of N36/C34 complex, 60 °C) for Ac-WMEWDREANNYTSLIHSLIEESQNQQEKNEQELL-NH2 [Ile^635→Ala] ? Y

* * *

Kindly supply the reported mean residue ellipticity [θ]222 of N36/C34 complex values for the records listed here.
target: N36 peptide (Human immunodeficiency virus type 1 group M subtype B); construct: made in house; host or cells: chemical peptide synthesis; assay type: physicochemical, HIV-1; conditions: CD at 222 nm, 0° C., PBS pH 7.0

>>> endpoint_result("Ac-WMEFDREINNYTSLIHSLIEESQNQQEKNEQELL-NH2 [Trp^631→Phe]")
"−26.3 10^3 deg cm^2 dmol^−1"
>>> endpoint_result("Ac-WMEWDREANNYTSLIHSLIEESQNQQEKNEQELL-NH2 [Ile^635→Ala]")
"−25.9 10^3 deg cm^2 dmol^−1"
>>> endpoint_result("Ac-WMELDREINNYTSLIHSLIEESQNQQEKNEQELL-NH2 [Trp^631→Leu]")
"−26.7 10^3 deg cm^2 dmol^−1"

Hi, could you look up mean residue ellipticity [θ]222 of N36/C34 complex for each item in my list?
1. Ac-WMEVDREINNYTSLIHSLIEESQNQQEKNEQELL-NH2 [Trp^631→Val]
2. Ac-WMEGDREINNYTSLIHSLIEESQNQQEKNEQELL-NH2 [Trp^631→Gly]
3. Ac-WMEWDAEINNYTSLIHSLIEESQNQQEKNEQELL-NH2 [Arg^633→Ala]

−23.9 10^3 deg cm^2 dmol^−1
17.1 10^3 deg cm^2 dmol^−1
−30.7 10^3 deg cm^2 dmol^−1

The reported measurements were obtained from patent US6841657B2.
